ASSAY: Therapeutic index, ratio of IC50 for human MCF10 cells to MIC for Staphylococcus aureus ATCC 43300
Format: cell-based
PARTICULARS: read-out: TI
READOUT_LABEL: selectivity ratio

Look up selectivity ratio: `CCc1nc(N)nc(N)c1C#CCc1cc(-c2ccc(C(=O)O)cc2)ccc1OC`
> 500000

###

ASSAY: Primary phase half life in mouse liver microsomes at 0.5 ug/ml in presence of NADPH by UPLC analysis
Format: ADME
PARTICULARS: read-out: alphat1/2
READOUT_LABEL: half-life at 0.5 ug/ml (h)
# number only, unit h dropped from output

Tell me the measured half-life at 0.5 ug/ml of `CCc1nc(N)nc(N)c1C#CCc1cc(-c2ccc(C(=O)O)cc2)ccc1OC` , please.
1.65

Reference for the values: ChEMBL document CHEMBL3826924
